We begin with a simple list: items and their reported IC50.
target: Prothrombin (Bos taurus, UniProt P00735)
Your answer is read as µM, so omit the unit and give the number.

In the examples that follow, each entry is paired with its recorded IC50.
Ask | Answer with reported IC50 of CCCCCCCCCCCCCC(=O)OCC1OC(Oc2cc(O)cc(O)c2C(=O)CCc2ccc(O)cc2)C(O)C(O)C1O (stereo not drawn) [Phloridzin myristate]
Reply | 75

Ask | Give recorded IC50. N=C(N)Nc1ccc(C(=O)O)cc1 [4-Guanidinobenzoate]
Reply | 400

Ask | Answer with reported IC50 of CCCCCCCC/C=C\CCCCCCCC(=O)OC1C(C)OC(OCC2OC(Oc3c(-c4ccc(O)c(O)c4)oc4cc(O)cc(O)c4c3=O)C(O)C(O)C2O)C(O)C1O (stereo not drawn) [Rutin oleate]
Reply | 9

Ask | Return reported IC50. Input compound: CCCCCCCCCCCCCCCC(=O)OCC1OC(Oc2cc3ccc(=O)oc3cc2O)C(O)C(O)C1O (stereo not drawn) [Esculin palmitate]
Reply | 54

Continuing:
Ask | Given O=C(CCc1ccc(O)cc1)c1c(O)cc(O)cc1OC1OC(CO)C(O)C(O)C1O (stereo not drawn) , respond with its IC50.
Reply | 320

Ask | Annotate the compound CCCCCC(=O)OC1C(C)OC(OCC2OC(Oc3c(-c4ccc(O)c(O)c4)oc4cc(O)cc(O)c4c3=O)C(O)C(O)C2O)C(O)C1O (stereo not drawn) [Rutin caproate] with its measured IC50.
Reply | 32

Ask | Give the reported value of IC50 for this record: CCCC(=O)OC1C(C)OC(OCC2OC(Oc3c(-c4ccc(O)c(O)c4)oc4cc(O)cc(O)c4c3=O)C(O)C(O)C2O)C(O)C1O (stereo not drawn) [Rutin butyrate]
Reply | 22

Ask | # return recorded IC50 for entry CCCCCCCCCCCC(=O)OC1C(C)OC(OCC2OC(Oc3c(-c4ccc(O)c(O)c4)oc4cc(O)cc(O)c4c3=O)C(O)C(O)C2O)C(O)C1O (stereo not drawn) [Rutin laurate]
Reply | 14

====

For Serine protease 1 (Bos taurus, UniProt P00760), measured IC50 is reported for the entries below.
Give the quantity in µM, number only.

Ask | Retrieve IC50 on Serine protease 1 (Bos taurus, UniProt P00760); query CCCCCCCCCCCCCC(=O)OC1C(C)OC(OCC2OC(Oc3c(-c4ccc(O)c(O)c4)oc4cc(O)cc(O)c4c3=O)C(O)C(O)C2O)C(O)C1O (stereo unspecified) [Rutin myristate]
Reply | 130

Ask | Specify the recorded IC50 for CCCCCCCCCCCCCCCC(=O)OC1C(C)OC(OCC2OC(Oc3c(-c4ccc(O)c(O)c4)oc4cc(O)cc(O)c4c3=O)C(O)C(O)C2O)C(O)C1O (stereo unspecified) [Rutin palmitate] , system: Serine protease 1 (Bos taurus, UniProt P00760).
Reply | 40

Ask | Specify the recorded IC50 for O=C(CCc1ccc(O)cc1)c1c(O)cc(O)cc1OC1OC(CO)C(O)C(O)C1O (stereo unspecified) [Phloridzin] , system: Serine protease 1 (Bos taurus, UniProt P00760).
Reply | 90

We now examine a further compound.
Ask | Give the observed IC50 of CCCCCCCCCCCCCCCCCC(=O)OC1C(C)OC(OCC2OC(Oc3c(-c4ccc(O)c(O)c4)oc4cc(O)cc(O)c4c3=O)C(O)C(O)C2O)C(O)C1O (stereo unspecified) [Rutin stearate] for Serine protease 1 (Bos taurus, UniProt P00760).
Reply | 40
